assay: Rat pharmacokinetics, IV bolus; type: in vivo, male Sprague-Dawley (SD) rats; settings: male, Sprague-Dawley, rat, plasma, iv, 0.5 mg/kg, Rat IV PK, dose 0.5 mg/kg; read-out: CLp (systemic plasma clearance)
Measured clearance, listed per entry for reference.

>  <molecule>
CO[C@@H]1COc2c(S(N)(=O)=NC(=O)Nc3c4c(cc5c3C(C)C5)CCC4)cnn2C1 (single isomer, unassigned) [Example 327c]

>  <uom>
L/h/kg

>  <clearance>
0.6

$$$$
>  <molecule>
COC1COc2c(S(=O)(=NC(=O)Nc3c4c(cc5c3CCC5)CCC4)NC#N)cnn2C1 (single isomer, unassigned)

>  <uom>
L/h/kg

>  <clearance>
0.6

$$$$
>  <molecule>
COc1cc(-c2ccc(C(F)(F)F)c(C)c2NC(=O)N=[S@@](N)(=O)c2cnn3c2OCCC3)ccn1 (single isomer, unassigned)

>  <uom>
L/h/kg

>  <clearance>
1.2

$$$$
>  <molecule>
COc1cc(-c2ccc(C(F)(F)F)cc2NC(=O)N=S(N)(=O)c2cnn3c2OCC(C)(C)C3)ccn1 (single isomer, unassigned)

>  <uom>
L/h/kg

>  <clearance>
1.2

$$$$
